Record: IC50 reported on Prostaglandin G/H synthase 2 (Ovis aries).
Quick reminder: number only, in nM, skip the unit.

CCc1ccc(C(=O)/C=C/C2=Cc3ccccc3OC2)cc1    390
O=C(/C=C/C1=Cc2ccccc2OC1)c1ccc(F)cc1    370
O=C(/C=C/C1=Cc2c(ccc3ccccc23)OC1)c1ccc([N+](=O)[O-])cc1    250

INPUT: Specify the recorded IC50 for COc1ccc(C(=O)/C=C/C2=Cc3ccccc3OC2)cc1 , system: Prostaglandin G/H synthase 2 (Ovis aries).
OUTPUT: 460

INPUT: Specify the recorded IC50 for O=C(/C=C/C1=Cc2ccccc2OC1)c1ccc(C(F)(F)F)cc1 , system: Prostaglandin G/H synthase 2 (Ovis aries).
OUTPUT: 830

INPUT: Specify the recorded IC50 for COc1ccc(C(=O)/C=C/C2=Cc3c(ccc4ccccc34)OC2)cc1 , system: Prostaglandin G/H synthase 2 (Ovis aries).
OUTPUT: 380

INPUT: Specify the recorded IC50 for O=C(/C=C/C1=Cc2c(ccc3ccccc23)OC1)c1ccc(Cl)cc1Cl , system: Prostaglandin G/H synthase 2 (Ovis aries).
OUTPUT: 290

INPUT: Specify the recorded IC50 for CCc1ccc(C(=O)/C=C/C2=Cc3c(ccc4ccccc34)OC2)cc1 , system: Prostaglandin G/H synthase 2 (Ovis aries).
OUTPUT: 430

INPUT: Specify the recorded IC50 for COc1ccc(C(=O)/C=C/C2=Cc3ccccc3OC2)cc1OC , system: Prostaglandin G/H synthase 2 (Ovis aries).
OUTPUT: 460

INPUT: Specify the recorded IC50 for O=C(/C=C/C1=Cc2ccccc2OC1)c1ccc(Br)cc1 , system: Prostaglandin G/H synthase 2 (Ovis aries).
OUTPUT: 420

INPUT: Specify the recorded IC50 for O=C(/C=C/C1=Cc2c(ccc3ccccc23)OC1)c1ccc(C(F)(F)F)cc1 , system: Prostaglandin G/H synthase 2 (Ovis aries).
OUTPUT: 330

INPUT: Specify the recorded IC50 for O=C(/C=C/C1=Cc2c(ccc3ccccc23)OC1)c1ccccc1F , system: Prostaglandin G/H synthase 2 (Ovis aries).
OUTPUT: 310
